Test system: SF-295 CNS
Assay: NCI-60 one-dose screen, 48 h (100 = growth as untreated, 0 = no growth, -100 = all killed)
Conditions: 10 µM unless noted
About 83,000 compounds went through this panel and 20% of them were active in at least one assay; those are over-represented in the sample as a whole. Activity calls are given as the source filed them. Rule for the calls: active = growth percent below 10; inactive = the rest.
reported metric: growth

INSERT INTO results (compound, endpoint_result) VALUES
  ('C[C@]12CCc3nc(Nc4ccccc4)sc3C1=CC[C@@H]1[C@@H]2CC[C@]2(C)/C(=N/NC(N)=S)CC[C@@H]12', '21.2% (inactive)'),
  ('CCOC(=O)c1cnc2ccc(Br)cc2c1Nc1cccc(S(N)(=O)=O)c1', '95.5% (inactive)'),
  ('CCOC(=O)c1nn(C2CCCCO2)c2ccc(NC(=O)CN3CCCC3)cc12 (centres undefined)', '98.5% (inactive)'),
  ('Clc1ccccc1/C=N\Nc1ccccn1', '95.7% (inactive)'),
  ('COc1ccc(NC(=S)NNc2ccc(-c3ccc(OC)c(OC)c3)nn2)cc1', '101% (inactive)'),
  ('COCCCNc1nc(NC(=O)c2cc(Br)cc(C(F)(F)F)c2)cc(-c2cccnc2)n1', '89.2% (inactive)'),
  ('c1ccc2c(c1)CN(CCCN1CCOCC1)C2', '97.9% (inactive)'),
  ('CCN(CC)c1ccc2cc(C(Nc3ccc(C)cc3)c3nnnn3C(C)(C)C)c(=O)oc2c1 (centres undefined)', '102% (inactive)'),
  ('C=C(C)[C@@H]1CC[C@]2(C(=O)NCCCCCCN(CCCN)CCCN)CC[C@]3(C)[C@H](CC[C@@H]4[C@@]5(C)CC[C@H](OCCCN)C(C)(C)[C@@H]5CC[C@]43C)[C@@H]12', '92.2% [100 µM] (inactive)');

* * *

Tested on: MALME-3M melanoma
Test: NCI-60 one-dose screen, 48 h
Details: 10 µM unless noted
This is part of a sample that, as a whole, favours compounds with a hit. Of some 83,000 tested, about 20% had one in any assay. Activity calls are given as the source filed them. Rule for the calls: active = growth percent below 10; inactive = the rest.
Outcome codes: active, inactive

INSERT INTO measurements (molecule, group_label) VALUES
  ('CN(Cc1cccc(C(F)(F)F)c1)C(=O)[C@@H](CC(=O)N1CCC(N2CCCCC2)CC1)N1C(=O)[C@@H](N2C(=O)OC[C@@H]2c2ccccc2)[C@H]1/C=C/c1ccccc1', 'inactive'),
  ('O=S(=O)(/N=c1/n(-c2ccccc2)nc2n1CCN2C1=NCCN1)c1ccc(-c2ccccc2)cc1', 'inactive'),
  ('CCCCCCCCN(CCCCCCCC)CC(O)c1ccc(Cl)c(C)c1Cl (stereo not drawn)', 'inactive'),
  ('CCn1cc(-c2ccnc(NCCNS(=O)(=O)c3ccc(Br)cc3)c2)c(-c2cccc(OC)c2)n1', 'inactive'),
  ('O=C(Nc1ccc(C(=O)/C=C/c2ccc(N3CCOCC3)cc2)cc1)Nc1ccc([N+](=O)[O-])cc1', 'inactive'),
  ('CCCN1CC(c2ccc(OC)c(OC)c2)=C(c2cn(C(=O)OCC)c3ccccc23)C1=O', 'inactive'),
  ('CCCCCCCCCCCCCC[n+]1cccc(C(N)=O)c1', 'active'),
  ('O=[N+]([O-])c1cc([N+](=O)[O-])c(C(F)(F)F)cc1NN=C(c1ccc(O)cc1)c1ccc(O)cc1', 'inactive');
